- measured-target: full-length WT STING (Homo sapiens, UniProt Q86WV6, H232R)
- Construct: AviTag (after gg linker) (C); HRV3C cleavage site (after gs linker) (C); HIS8 (C); made in house; host or cells: Trichoplusia ni (Hi-Five) insect cells infected with baculovirus (virus generated and amplified in Sf21 cells); used as a washed membrane preparation
- Sequence (Q86WV6 with tags, fused parts or gaps H232R): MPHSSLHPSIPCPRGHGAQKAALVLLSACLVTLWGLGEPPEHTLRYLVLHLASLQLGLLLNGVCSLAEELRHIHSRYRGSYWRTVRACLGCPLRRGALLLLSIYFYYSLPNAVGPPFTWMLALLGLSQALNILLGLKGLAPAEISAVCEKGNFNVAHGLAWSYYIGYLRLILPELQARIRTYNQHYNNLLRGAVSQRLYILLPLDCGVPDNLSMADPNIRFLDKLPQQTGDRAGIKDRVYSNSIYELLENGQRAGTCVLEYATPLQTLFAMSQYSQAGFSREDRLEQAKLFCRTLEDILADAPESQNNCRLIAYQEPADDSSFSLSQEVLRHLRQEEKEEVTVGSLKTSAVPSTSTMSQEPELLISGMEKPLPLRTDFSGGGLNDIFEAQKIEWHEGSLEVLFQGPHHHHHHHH
- test-method-notes: 3H-cGAMP filtration binding assay (WT STING)
- particulars: competition with tritiated cGAMP, WT STING membrane
reported-endpoint: EC50
In your response, put the unit directly after the numeric value.

For the molecule shown here, `COc1cc2sc(C(=O)C[C@H](C)C(=O)O)cc2cc1CCCOc1c(OC)cc2sc(C(=O)C[C@H](C)C(=O)O)cc2c1F` , give the reported EC50. 2 nM

For the molecule shown here, `COc1cc2sc(C(=O)CCC(=O)O)cc2cc1CCCNc1cc2cc(C(=O)C[C@H](C)C(=O)O)sc2cc1OC` , give the reported EC50. 720 nM

For the molecule shown here, `COc1cc2sc(C(=O)[C@H]3C[C@@H]3C(=O)O)cc2cc1OCCCOc1cc2cc(C(=O)[C@@H]3C[C@H]3C(=O)O)sc2cc1OC` , give the reported EC50. 12700 nM

For the molecule shown here, `COc1cc2sc(C(=O)C[C@H](C)C(=O)O)cc2cc1CCCc1cc2cc(C(=O)C[C@H](C)C(=O)O)sc2cc1OC` , give the reported EC50. 14 nM

For the molecule shown here, `COc1cc2sc(C(=O)C[C@H](C)C(=O)O)cc2c(F)c1OCCCOc1c(OC)cc2sc(C(=O)C[C@H](C)C(=O)O)cc2c1Cl` , give the reported EC50. 1 nM

For the molecule shown here, `COc1cc2sc(C(=O)C[C@H](C)C(=O)O)cc2cc1OCCOc1ccc2cc(C(=O)CCC(=O)O)sc2c1` , give the reported EC50. 3130 nM

For the molecule shown here, `COc1cc2sc(C(=O)C[C@H](C)C(=O)O)cc2c(F)c1OCCCOc1c(OC)cc2sc(CC[C@H](C)C(=O)O)cc2c1Cl` , give the reported EC50. 1040 nM

For the molecule shown here, `COc1cc2sc(C(=O)CCC(N)=O)cc2cc1CCCc1cc2cc(C(=O)CCC(=O)O)sc2cc1OC` , give the reported EC50. 7520 nM

For the molecule shown here, `COc1cc2sc(C(=O)C[C@H](C)C(=O)O)cc2cc1OCCCOc1c(OC)cc2sc(C(=O)CC(C)(C)C(=O)O)cc2c1F` , give the reported EC50. 2 nM

For the molecule shown here, `COc1cc2cc(C(=O)C[C@H](C)C(=O)O)sc2cc1OCCCCOc1cc2sc(C(=O)C[C@H](C)C(=O)O)cc2cc1OC` , give the reported EC50. 813 nM

For the molecule shown here, `COc1cc2sc(C(=O)C[C@H](C)C(=O)O)cc2cc1OCCCc1c(OC)cc2sc(C(=O)C[C@H](C)C(=O)O)cc2c1F` , give the reported EC50. 4 nM

For the molecule shown here, `COc1cc2sc(C(=O)C[C@H](C)C(=O)O)cc2c(Br)c1OCCCOc1c(OC)cc2sc(C(=O)C[C@H](C)C(=O)O)cc2c1Br` , give the reported EC50. 233 nM

For the molecule shown here, `COc1cc2sc(C(=O)C[C@H](C)C(=O)O)cc2cc1OCCCCCOc1cc2sc(C(=O)C[C@H](C)C(=O)O)cc2cc1OC` , give the reported EC50. 8900 nM
